Test system: Rat white adipocytes
Assay: Inhibition of the differentiation of adipocytes (Oil Red O)
Assay type: cell-based
Details: Rattus norvegicus, Adipocyte, 120 h, 100 nM test compound; 5 days; Oil Red O ABS550; control = 100%, blank = 0%; Table 3; read-out: Rate of Differentiation (%)
Counter-ions that a name gives are not always drawn.
Answer -1 if activity at 0.1 µM is under 40%, and 1 if it is 40% or more.

compound=CCCCCCCCNc1ccc(-c2ccc(NC(=O)c3cc([N+](=O)[O-])ccc3Cl)cc2)cc1 discretelabel=-1
compound=Nc1nc(-c2ccc(NC(=O)c3cc([N+](=O)[O-])ccc3Cl)cc2)cs1 discretelabel=1
compound=CCN(c1ccc(NS(=O)(=O)c2ccc(NC(=O)c3cc([N+](=O)[O-])ccc3Cl)cc2)cc1)C(C)C discretelabel=1
compound=O=C(Nc1ccc(-c2ccc(NC(=O)c3cc([N+](=O)[O-])ccc3Cl)cc2)cc1)c1ccncc1 discretelabel=1
compound=O=C(Nc1ccncc1)c1cc([N+](=O)[O-])ccc1Cl discretelabel=1
compound=O=C(Nc1ccccc1)Nc1ccc(-c2ccc(NC(=O)c3cc([N+](=O)[O-])ccc3Cl)cc2)cc1 discretelabel=1
compound=CCOC(=O)NC(=S)NCCc1ccc(NC(=O)c2cc([N+](=O)[O-])ccc2Cl)cc1 discretelabel=1
compound=Cc1ccc(S(=O)(=O)Nc2ccc(-c3ccc(NC(=O)c4cc([N+](=O)[O-])ccc4Cl)cc3)cc2)cc1 discretelabel=1
compound=O=C(Nc1ccc(-c2ccc(NC(=S)Nc3cccc(F)c3)cc2)cc1)c1cc([N+](=O)[O-])ccc1Cl discretelabel=-1
compound=O=C(Nc1ccc(-c2ccc(NC(=O)c3cc([N+](=O)[O-])ccc3Cl)cc2)cc1)Nc1ccccc1[N+](=O)[O-] discretelabel=1
compound=CCCCN(CCCC)c1ccc(-c2ccc(NC(=O)c3cc([N+](=O)[O-])ccc3Cl)cc2)cc1 discretelabel=-1
compound="CCCCCCCCN(CCCCCC)c1ccc(-c2ccc(NC(=O)c3cc([N+](=O)[O-])ccc3Cl)cc2)cc1 [Example 220, mono-hydrochloride]" discretelabel=-1
compound=CCCN(CC)c1ccc(-c2ccc(NC(=O)c3cc([N+](=O)[O-])ccc3Cl)cc2)cc1 discretelabel=1

---

Measured activity at 0.1 µM, listed per entry.
Test system: Rat white adipocytes
Experiment: Inhibition of the differentiation of adipocytes (Oil Red O)
Type: cell-based
Conditions: Rattus norvegicus, Adipocyte, 120 h, 100 nM test compound; 5 days; Oil Red O ABS550; control = 100%, blank = 0%; Table 3; read-out: Rate of Differentiation (%)
Protocol: Rat white adipocytes contained in the white adipocyte culture kit purchased from HOKUDO were used. […] After culturing for 5 days, all differentiation-inducing medium was discarded and replaced with 60 μL of 10% (v/v) formaldehyde solution (for fixation) in each well and the cells were kept stationary for 20 min at room temperature. […] The measured level at ABS550 in the control group was defined as 100%, while the level at ABS550 in the blank group was defined as 0%. […]
recordedEndpoint: activity at 0.1 µM (%)

compound="CCCCCN(CCCCC)c1ccc(-c2ccc(NC(=O)c3cc([N+](=O)[O-])ccc3Cl)cc2)cc1 [Example 214]" valueunits=% measuredvalue=31.7
compound="O=C(Nc1ccc(N2CCN(C(=O)c3ccccc3)CC2)cc1)c1cc([N+](=O)[O-])ccc1Cl [Example 184]" valueunits=% measuredvalue=46.6
compound="O=C(Nc1ccc(-c2ccc(NC(=S)Nc3ccccc3)cc2)cc1)c1cc([N+](=O)[O-])ccc1Cl [Example 252]" valueunits=% measuredvalue=36.7
compound="Cc1ccc(C(=O)Nc2nc3ccc(NC(=O)c4cc([N+](=O)[O-])ccc4Cl)cc3s2)cc1 [Example 149]" valueunits=% measuredvalue=80.3

The origin of these recorded values is patent US20030134859A1.
